# System: NCI-H23;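 note: cell viability assay measuring growth inhibition of NCI-H23 cells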
# Assay protocol: cells
# Assay type: functional, cell-based
# Measurement setup: Homo sapiens
# Description: SANGER: Inhibition of human NCI-H23 cell growth in a cell viability assay.
Measured property: IC50

INSERT INTO results (compound, measurement_target, reported_value) VALUES
  ('CCNC(=O)c1noc(-c2cc(C(C)C)c(O)cc2O)c1-c1ccc(CN2CCOCC2)cc1 [LUMINESPIB]', 'NCI-H23', '241 nM'),
  ('Cc1nc(Nc2ncc(C(=O)Nc3c(C)cccc3Cl)s2)cc(N2CCN(CCO)CC2)n1 [DASATINIB]', 'NCI-H23', '> 1280 nM'),
  ('COc1cc(C)c(Sc2cnc(NC(=O)c3ccc(CNC(C)C(C)(C)C)cc3)s2)cc1C(=O)N1CCN(C(C)=O)CC1 (stereo not drawn)', 'NCI-H23', '> 10200 nM');

====

Reported pIC50 by item:
# Tested on: D-542MG
# Assay protocol: cells
# Type: functional, cell-based
# Measurement setup: Homo sapiens
# Description: SANGER: Inhibition of human D-542MG cell growth in a cell viability assay.
pIC50: −log10 of the molar value.
Measured property: pIC50

INSERT INTO assay_data (compound, measured_property, reported_value) VALUES
  ('Cn1cc(/C=C2\C(=O)Nc3cccnc32)c2ccccc21', 'pIC50', '< 5.70'),
  ('Fc1cc(-c2cc[nH]/c(=N/c3ccc(-n4cnc(N5CCOCC5)n4)cc3)n2)cc(N2CCOCC2)c1', 'pIC50', 6.45),
  ('C/C(O)=C(\C#N)C(=O)Nc1cc(Br)ccc1Br', 'pIC50', '< 4.80'),
  ('CC(O)(CS(=O)(=O)c1ccc(F)cc1)C(=O)Nc1ccc(C#N)c(C(F)(F)F)c1 (stereo unspecified) [BICALUTAMIDE]', 'pIC50', '< 5.99'),
  ('CC(C)=CC[C@@H](O)C1=CC(=O)c2c(O)ccc(O)c2C1=O', 'pIC50', 6.24),
  ('CC[C@]1(O)C[C@@H]2CN(CCc3c([nH]c4ccccc34)[C@@](C(=O)OC)(c3cc4c(cc3OC)N(C)[C@H]3[C@@](O)(C(=O)OC)[C@H](OC(C)=O)[C@]5(CC)C=CCN6CC[C@]43[C@@H]65)C2)C1', 'pIC50', '< 7.00');

====

# Tested on: DK-MG;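 note: growth inhibition of DK-MG cells, read out with a cell viability assay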
# Assay protocol: cells
# Type: functional, cell-based
# Measurement setup: Homo sapiens
# Description: SANGER: Inhibition of human DK-MG cell growth in a cell viability assay.
pIC50: −log10 of the molar value.
Quick reference: pIC50 of the listed items.
Measured property: pIC50

INSERT INTO results (compound, measurement_target, reported_value) VALUES
  ('O=c1[nH]c2ccccc2n1C1CCN(Cc2ccc(-c3nc4cc5[nH]cnc5cc4nc3-c3ccccc3)cc2)CC1', 'DK-MG', '< 5.59'),
  ('CC(=O)c1c(C)c2cnc(Nc3ccc(N4CCNCC4)cn3)nc2n(C2CCCC2)c1=O', 'DK-MG', '< 5.40'),
  ('CC(O)(CS(=O)(=O)c1ccc(F)cc1)C(=O)Nc1ccc(C#N)c(C(F)(F)F)c1 (centres undefined) [BICALUTAMIDE]', 'DK-MG', '< 5.99'),
  ('CO[C@@]12[C@H](COC(N)=O)C3=C(C(=O)C(C)=C(N)C3=O)N1C[C@@H]1N[C@@H]12', 'DK-MG', '< 4.80');

====

# Test system: SN12C;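 note: growth inhibition of human SN12C cells, measured by a cell viability assay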
# Assay protocol: cells
# Type: functional, cell-based
# Measurement setup: Homo sapiens
# Description: SANGER: Inhibition of human SN12C cell growth in a cell viability assay.
Measured property: IC50

INSERT INTO measurements (mol_smiles, measurement_target, reported_value) VALUES
  ('COc1cc(Nc2c(C#N)cnc3cc(OCCCN4CCN(C)CC4)c(OC)cc23)c(Cl)cc1Cl', 'SN12C', '> 2 µM'),
  ('NC(=O)c1ncn([C@@H]2O[C@H](COP(=O)(O)O)[C@@H](O)[C@H]2O)c1N', 'SN12C', '> 2000 µM'),
  ('CC[C@@]1(O)C(=O)OCc2c1cc1n(c2=O)Cc2cc3ccccc3nc2-1', 'SN12C', '0.0045 µM'),
  ('O=c1cc(N2CCOCC2)oc2c(-c3cccc4c3sc3ccccc34)cccc12', 'SN12C', '> 2 µM');
